- TARGET ENTITY: PRMT5/MEP50 (Homo sapiens)
- Sequence (O14744 2-637 limits assumed): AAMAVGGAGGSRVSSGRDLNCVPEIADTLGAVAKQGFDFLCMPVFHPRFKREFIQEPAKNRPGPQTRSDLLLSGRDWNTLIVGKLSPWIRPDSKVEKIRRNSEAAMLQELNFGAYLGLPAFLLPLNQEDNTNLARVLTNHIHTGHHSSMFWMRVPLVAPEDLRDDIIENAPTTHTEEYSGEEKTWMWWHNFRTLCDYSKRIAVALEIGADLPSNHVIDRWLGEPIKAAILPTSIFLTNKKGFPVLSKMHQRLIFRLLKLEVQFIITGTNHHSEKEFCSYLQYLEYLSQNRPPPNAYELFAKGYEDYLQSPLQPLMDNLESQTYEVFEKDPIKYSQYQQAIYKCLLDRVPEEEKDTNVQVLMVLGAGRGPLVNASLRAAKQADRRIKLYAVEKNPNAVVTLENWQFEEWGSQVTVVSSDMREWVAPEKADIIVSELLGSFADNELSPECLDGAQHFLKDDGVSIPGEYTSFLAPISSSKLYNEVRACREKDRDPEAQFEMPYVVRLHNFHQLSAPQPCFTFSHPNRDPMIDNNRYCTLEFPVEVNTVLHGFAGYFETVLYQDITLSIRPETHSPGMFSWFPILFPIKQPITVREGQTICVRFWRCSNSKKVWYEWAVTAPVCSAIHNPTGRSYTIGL
- Sequence (Q9BQA1 2-342 partner limits assumed): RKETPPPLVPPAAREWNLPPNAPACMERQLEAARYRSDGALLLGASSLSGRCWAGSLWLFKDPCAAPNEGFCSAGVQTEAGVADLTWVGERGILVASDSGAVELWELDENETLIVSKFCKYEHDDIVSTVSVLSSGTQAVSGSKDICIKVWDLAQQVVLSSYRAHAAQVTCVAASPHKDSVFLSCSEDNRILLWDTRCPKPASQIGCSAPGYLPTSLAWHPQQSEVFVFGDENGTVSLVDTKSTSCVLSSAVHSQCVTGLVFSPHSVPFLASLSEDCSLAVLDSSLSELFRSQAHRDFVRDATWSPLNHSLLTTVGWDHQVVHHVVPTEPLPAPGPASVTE
- ASSAY REMARKS: MTase-Glo methyl transferase assay, Method B (FL-Histone H2A, 1 µM MTA, 1 h pre-incubation)
- Assay type: biochemical
- Parameters: purchased Reaction Biology Corp RD-11-292
- STATED CONDITIONS: read-out: PRMT5 MTase Glo Ki (nM, Meth. B)
MEASURE NAME: Ki (nM)
A number alone suffices; assume nM.

Example results:
# MOLECULE, Ki [nM]
rows = [
    ("Cc1cc2cc(C(=O)N(Cc3ccc(C(F)(F)F)cn3)Cc3ccnn3C)ccc2nc1N [Example 686]", 5.12),
    ("Cc1cc2cc(C(=O)N(Cc3ccc(C(F)(F)F)cn3)CC3CCC(O)C3)ccc2nc1N (centres unmarked) [Example 677]", 9.37),
    ("Cc1cc2cc(C(=O)N(Cc3ccc(C(F)(F)F)cn3)Cc3ccnc4[nH]ccc34)ncc2nc1N [Example 684]", 2.29),
]

Inquiry: Enter reported Ki observed with PRMT5/MEP50 (Homo sapiens) for Cc1cc2cc(C(=O)N(Cc3ccc(C(F)(F)F)cn3)C3CC3(C)C)ccc2nc1N (centres unmarked) [Example 706]
Reply text: 31

Inquiry: Enter reported Ki observed with PRMT5/MEP50 (Homo sapiens) for Cc1cc2cc(C(=O)N(Cc3ccc(C(F)(F)F)cn3)C3COCc4ccccc43)ccc2nc1N (centres unmarked) [Example 593]
Reply text: 13.2

Inquiry: Enter reported Ki observed with PRMT5/MEP50 (Homo sapiens) for Cc1cc2cc(C(=O)N(Cc3ccc(C(F)(F)F)cn3)C(C)c3cc[nH]c(=O)c3)ccc2nc1N (centres unmarked) [Example 664]
Reply text: 9.1

Inquiry: Enter reported Ki observed with PRMT5/MEP50 (Homo sapiens) for CO[C@@H]1COCC[C@H]1N(Cc1ccc(C(F)(F)F)cn1)C(=O)c1ccc2nc(N)c(C)cc2c1 [Example 704]
Reply text: 25.1

Inquiry: Enter reported Ki observed with PRMT5/MEP50 (Homo sapiens) for Cc1cc2cc(C(=O)N(Cc3ccc(C#N)cn3)C3CCCC3C#N)c(F)cc2nc1N (centres unmarked) [Example 703]
Reply text: 5.62

###

- Test system: HCT116 MTAP null cells
- ASSAY REMARKS: HCT116 proliferation assay, MTAP null cells (CellTiter-Glo, 6 days)
- Type: cell-based
- STATED CONDITIONS: HCT116-MTAP null, 144 h, read-out: Protif_ HCT116-MTAP null IC50
# strict inequality: IC50 < 300 nM yields 1, everything else yields -1

# MOLECULE, CLASS NAME
rows = [
    ("Cc1cc2cc(C(=O)N(Cc3ccc(C(F)(F)F)cn3)C(C)c3cc[nH]c(=O)c3)ccc2nc1N (stereo not shown)", -1),
    ("Cc1cc2cc(C(=O)N(Cc3ccc(C#N)cc3)[C@H](C)c3ncccn3)ccc2nc1N (single isomer, unassigned)", 1),
    ("C[C@H](c1ncccn1)N(Cc1ccc(C(F)F)cn1)C(=O)c1cnc2nc(N)c(Cl)cc2c1", -1),
    ("C[C@H](c1ncccn1)N(Cc1ccc(C(F)(F)F)cn1)C(=O)c1ccc2nc(N)c(I)cc2c1 (single isomer, unassigned)", 1),
    ("Cc1cc2cc(C(=O)N(Cc3ccc(C#N)nc3C)[C@H](C)c3ncccn3)ccc2nc1N (single isomer, unassigned)", 1),
    ("Cc1cc2cc(C(=O)N(Cc3ccc(C(F)(F)F)cn3)C(C)CC#N)ccc2nc1N (stereo not shown)", 1),
]

Could you now consider this next molecule?
Inquiry: is_below(IC50, 300 nM) for Cc1cc2cc(C(=O)N(Cc3ccc(O)cc3)Cc3ccc(C(F)(F)F)cn3)ccc2nc1N ?
Reply text: 1

###

- System: HCT116 MTAP null cells
- ASSAY REMARKS: HCT116 proliferation assay, MTAP null cells (CellTiter-Glo, 6 days)
- Type: cell-based
- STATED CONDITIONS: HCT116-MTAP null, 144 h, read-out: Protif_ HCT116-MTAP null IC50
- Protocol: HCT116 MTAP null and WT cells were seeded in 96-well tissue culture plates in RPMI 1640 media + 10% fetal bovine serum. Plates were incubated overnight at 37° C. and 5% CO2. […] Effects on cell viability were measured with the CellTiter-Glo® Luminescent Cell Viability Assay (Promega) per manufacturer’s recommendation. Assay plates were read on an EnVision™ Multilabel Reader using the Ultra-Sensitive luminescence module.
The following compounds are listed with their measured pIC50 values.
Just so you know, pIC50 here is -log10 of the concentration in molar units; reply with that number alone.

Example results:
# COMPOUND, TARGET ENTITY, NUMERIC VALUE
rows = [
    ("Cc1nc2c(s1)C(N(Cc1ccc(C(F)(F)F)cn1)C(=O)c1ccc3nc(N)c(C)cc3c1)CCC2 (centres unmarked)", "HCT116 MTAP null cells", 7.36),
    ("Cc1cc2cc(C(=O)N(Cc3ncc(C(F)(F)F)cc3F)[C@H](C)c3ncccc3F)ccc2nc1N", "HCT116 MTAP null cells", 6.78),
    ("CCC(C1CCOCC1)N(Cc1ccc(C(F)(F)F)cn1)C(=O)c1ccc2nc(N)c(C)cc2c1 (centres unmarked)", "HCT116 MTAP null cells", 6.62),
]

Inquiry: Data request, read-out pIC50, for [2H]C([2H])([2H])c1cc2cc(C(=O)N(Cc3ccc(C#N)cn3)[C@H](C)c3ncccn3)ccc2nc1N
Reply text: 6.97

Inquiry: Data request, read-out pIC50, for Cc1cc2cc(C(=O)N(Cc3ccc(C(N)=O)cn3)[C@H](C)c3ccccc3F)ccc2nc1N
Reply text: 6.70

Inquiry: Data request, read-out pIC50, for CC#CCN(Cc1ccc(C(F)(F)F)cn1)C(=O)c1ccc2nc(N)c(C)cc2c1
Reply text: 6.21

Inquiry: Data request, read-out pIC50, for Cc1cc2cc(C(=O)N(Cc3ccc(N)cn3)Cc3c[nH]c4ccccc34)ccc2nc1N
Reply text: 6.28

Inquiry: Data request, read-out pIC50, for Cc1cc2cc(C(=O)N(Cc3ccc(Br)nn3)[C@H](C)c3ncccn3)c(F)cc2nc1N
Reply text: 7.44

###

- Test system: HCT116 MTAP null cells
- ASSAY REMARKS: HCT116 proliferation assay, MTAP null cells (CellTiter-Glo, 6 days)
- Type: cell-based
- STATED CONDITIONS: HCT116-MTAP null, 144 h, read-out: Protif_ HCT116-MTAP null IC50
- Description: HCT116 MTAP null and WT cells were seeded in 96-well tissue culture plates in RPMI 1640 media + 10% fetal bovine serum. Plates were incubated overnight at 37° C. and 5% CO2. […] Effects on cell viability were measured with the CellTiter-Glo® Luminescent Cell Viability Assay (Promega) per manufacturer’s recommendation. Assay plates were read on an EnVision™ Multilabel Reader using the Ultra-Sensitive luminescence module.
# strict inequality: IC50 < 90 nM yields Met, everything else yields Not met

Solved entries:
# MOLECULE, TARGET ENTITY, CLASS NAME
rows = [
    ("Cc1cc2cc(C(=O)N(Cc3ccc(OC(F)F)nn3)C(C)c3ncccn3)ccc2nc1N (centres unmarked)", "HCT116 MTAP null cells", "Met"),
    ("Cc1cc2cc(C(=O)N(Cc3ccc(C(F)(F)F)cn3)C(C)C(C)C)ccc2nc1N (centres unmarked)", "HCT116 MTAP null cells", "Met"),
    ("Cc1cc2cc(C(=O)N(Cc3ccc(C(F)(F)F)cn3)C3COc4ccccc43)ccc2nc1N (centres unmarked)", "HCT116 MTAP null cells", "Not met"),
    ("Cc1cc2cc(C(=O)N(Cc3ccc(Br)cn3)[C@H](C)c3ncccn3)ccc2nc1N", "HCT116 MTAP null cells", "Met"),
    ("Cc1cc2cc(C(=O)N(Cc3ccc(C#N)cn3)[C@H](C)c3ccccn3)ccc2nc1N (single isomer, unassigned)", "HCT116 MTAP null cells", "Not met"),
    ("Cc1cc2cc(C(=O)N(Cc3ccc(C(F)(F)F)cn3)[C@H](C)c3ccc(F)cc3)ccc2nc1N", "HCT116 MTAP null cells", "Not met"),
    ("Cc1cc2cc(C(=O)N(Cc3ccc(C#N)cn3)[C@@H](c3ncccn3)C3CC3)c(F)cc2nc1N", "HCT116 MTAP null cells", "Met"),
]

Could you now consider this next molecule?
Inquiry: is_below(IC50, 90 nM) for Cc1cc2cc(C(=O)N(Cc3cncc(F)c3)Cc3ccc(C(F)(F)F)cn3)ccc2nc1N ?
Reply text: Not met

###

- System: HCT116 MTAP null cells
- ASSAY REMARKS: HCT116 proliferation assay, MTAP null cells (CellTiter-Glo, 6 days)
- Assay type: cell-based
- STATED CONDITIONS: HCT116-MTAP null, 144 h, read-out: Protif_ HCT116-MTAP null IC50
The following molecules are listed with their measured pIC50 values.
Just so you know, pIC50 here is -log10 of the concentration in molar units; reply with that number alone.

Example results:
# MOLECULE, MEASURE NAME, NUMERIC VALUE
measured = [
    ("Cc1cc2cc(C(=O)N(Cc3ccncn3)Cc3ccc(C(F)(F)F)cn3)ccc2nc1N", "pIC50", 6.14),
    ("Cc1cc2cc(C(=O)N(Cc3ccc(C(F)(F)F)cn3)C3CCc4c(O)cccc43)ccc2nc1N (centres unmarked)", "pIC50", 7.28),
    ("COc1ccc(CN(C(=O)c2ccc3nc(N)c(C)cc3c2)C(C)c2ncn(C)n2)nn1 (centres unmarked)", "pIC50", 6.64),
    ("CC[C@H](c1ncccn1)N(Cc1ccc(C(F)(F)F)cn1)C(=O)c1cc2cc(Br)c(N)nc2cn1 (single isomer, unassigned)", "pIC50", 6.60),
    ("Cc1cc2cc(C(=O)N(Cc3ccc(C(F)(F)F)cn3)Cc3c[nH]c4ccccc34)ccc2nc1N", "pIC50", 6.99),
    ("Cc1cc2cc(C(=O)N(Cc3ccc(C(F)(F)F)nn3)[C@H](C)c3ncccc3Cl)ccc2nc1N (single isomer, unassigned)", "pIC50", 6.22),
    ("COc1ccc(CN(C(=O)c2ccc3nc(N)c(C)cc3c2)[C@H](C)c2ncn(C)n2)nn1 (single isomer, unassigned)", "pIC50", 6.91),
    ("Cc1cc2cc(C(=O)N(Cc3ccc(C#N)cn3)[C@@H]3CCCn4ncnc43)ccc2nc1N (single isomer, unassigned)", "pIC50", 6.48),
    ("Cc1cc2cc(C(=O)N(Cc3ccc(C(F)(F)F)cn3)C3CC3C3CC3)ccc2nc1N (centres unmarked)", "pIC50", 6.12),
    ("C[C@H](c1cscn1)N(Cc1ccc(C(F)(F)F)nn1)C(=O)c1cnc2nc(N)c(Br)cc2c1 (single isomer, unassigned)", "pIC50", 7.23),
]

Inquiry: Data request, read-out pIC50, for Cc1cc2cc(C(=O)N(Cc3ccc(N4CCCCC4)cc3)CC3(C#N)CC3)ccc2nc1N
Reply text: 6.31

Inquiry: Data request, read-out pIC50, for Cc1cc2cc(C(=O)N(Cc3ccc(C(F)(F)F)cn3)[C@@H]3CCCN(C)C3=O)ccc2nc1N (single isomer, unassigned)
Reply text: 6.81

Inquiry: Data request, read-out pIC50, for C[C@H](c1ncccn1)N(Cc1ccc(C#N)c(Cl)n1)C(=O)c1ccc2nc(N)c(I)cc2c1
Reply text: 7.28

Inquiry: Data request, read-out pIC50, for C[C@H](c1ncccn1)N(Cc1ccc(C2=CCOCC2)nn1)C(=O)c1ccc2nc(N)c(Cl)cc2c1
Reply text: 6.36
